Target: IFN-gamma (Homo sapiens) (UniProt P01579)
Sequence: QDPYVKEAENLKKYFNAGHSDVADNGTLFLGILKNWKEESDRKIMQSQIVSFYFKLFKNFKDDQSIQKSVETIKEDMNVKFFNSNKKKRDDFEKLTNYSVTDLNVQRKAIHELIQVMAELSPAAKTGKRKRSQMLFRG
Experiment: filter
Details: 2'-F all C and U; random pool
pKd: −log10 of the molar value.
READOUT NAME: pKd

Documented pKd of GGGAGGACGAUGCGGNNNNNNNNNNNNNNNNNNNNNNNNNNNNNNNNNNNNNNNNCAGACGACUCGCCCGA [40N7 random pool 2'F] : < 6.15
